Values were extracted from patent US20140112915A1.

# assayTarget: T1, Recombinant human IL-18 (human, UniProt Q14116 37-193)
# T1 sequence: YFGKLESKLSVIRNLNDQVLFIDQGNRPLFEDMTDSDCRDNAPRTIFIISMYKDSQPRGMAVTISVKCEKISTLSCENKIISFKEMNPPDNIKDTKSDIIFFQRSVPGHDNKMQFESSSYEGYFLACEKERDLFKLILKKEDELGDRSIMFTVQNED
# experimentSummary: cell-based or functional assay
Record form. Attribute: IC50, inhibition of IFN-γ release, human whole blood, recombinant human IL-18 (7 nM). Fill in for each entry.
# unit: nM | format: bare number

Query block: Complete the entry with IC50, inhibition of IFN-γ release, human whole blood, recombinant human IL-18 (7 nM) for MOR10222_E1Q_N30S (antibody, human IgG1, lambda, L234A L235A, V domains shown) VH: QVQLVQSGAEVKKPGSSVKVSCKASGGTFSSYAISWVRQAPGQGLEWMGNIIPMTGQTYYAQKFQGRVTITADESTSTAYMELSSLRSEDTAVYYCARAAYHPLVFDNWGQGTLVTVSS VL: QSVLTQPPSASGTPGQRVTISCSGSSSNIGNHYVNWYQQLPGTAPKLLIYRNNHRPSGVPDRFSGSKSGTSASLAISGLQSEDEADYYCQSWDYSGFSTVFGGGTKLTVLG
Result block: 58.4

Query block: Give the measured IC50, inhibition of IFN-γ release, human whole blood, recombinant human IL-18 (7 nM) for MOR09465 (antibody, human IgG1, lambda, L234A L235A, V domains shown, also called MOR9465) VH: EVQLVQSGAEVKKPGSSVKVSCKASGGTFNSYAISWVRQAPGQGLEWMGNIIPHYGFAYYAQKFQGRVTITADESTSTAYMELSSLRSEDTAVYYCARAAYHPLVFDNWGQGTLVTVSS VL: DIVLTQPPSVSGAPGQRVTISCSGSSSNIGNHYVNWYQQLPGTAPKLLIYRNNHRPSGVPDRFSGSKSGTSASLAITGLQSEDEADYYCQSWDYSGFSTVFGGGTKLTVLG
Result block: 4.2

Query block: Name the recorded IC50, inhibition of IFN-γ release, human whole blood, recombinant human IL-18 (7 nM) of the binder listed here: MOR10501 (antibody, human IgG1, lambda, L234A L235A, V domains shown, also called MOR010501) VH: EVQLQESGPGLVKPGETLSLTCTVSGGSISTGSYYWNWIRQAPGKGLEWIGEIWHSGPTFYNPSLKSRVTISVDTSKNQFSLKLSSVTAADTAVYYCARTTRYWMSHILAYGMDYWGQGTLVTVSS VL: DIVLTQPPSVSGAPGQRVTISCSGSSSNIGNHYVSWYQQLPGTAPKLLIYANTKRPSGVPDRFSGSKSGTSASLAITGLQSEDEADYYCSSYDGSQSIVFGGGTKLTVLG
Result block: 20.3
